System: SF-268
Assay: NCI tumour cell line growth inhibition, 48 h
The source made the active and inactive calls. No stated cut-off is given here; in the data, active = GI50 up to about 1.1 µM and inactive = higher.
Hello, when you answer, please use one of the following outcomes: y (active), n (inactive)

MOLECULE	TARGET OR SYSTEM	ANSWER LABEL
CCCCCC(=O)N[C@H]1CCc2cc(OC)c(OC)c(OC)c2-c2ccc(SC)c(=O)cc21	SF-268	y
O=C(Nc1ccc(-c2cn3ccccc3n2)cc1)c1cc(Br)ccc1O	SF-268	n
NCC1OC(n2cnc3c(=O)[nH]c(N)nc32)C(O)C1O (stereo not given)	SF-268	n
CCOc1ccccc1NC(=O)C(C#N)C1=C(Cl)C(=O)c2ccccc2C1=O (stereo not given)	SF-268	n

Here's the next entry for you.
input: Fill in: this test's call for "O=[N+]([O-])c1cccc2nc3ccccc3c(NCCCn3ccnc3[N+](=O)[O-])c12" is ___
output: y

The values you see were collected from ChEMBL document CHEMBL1201862.
